- Tested Target: acetylcholine receptor (Homo sapiens, UniProt P02708)
- Sequence (P02708 21-457): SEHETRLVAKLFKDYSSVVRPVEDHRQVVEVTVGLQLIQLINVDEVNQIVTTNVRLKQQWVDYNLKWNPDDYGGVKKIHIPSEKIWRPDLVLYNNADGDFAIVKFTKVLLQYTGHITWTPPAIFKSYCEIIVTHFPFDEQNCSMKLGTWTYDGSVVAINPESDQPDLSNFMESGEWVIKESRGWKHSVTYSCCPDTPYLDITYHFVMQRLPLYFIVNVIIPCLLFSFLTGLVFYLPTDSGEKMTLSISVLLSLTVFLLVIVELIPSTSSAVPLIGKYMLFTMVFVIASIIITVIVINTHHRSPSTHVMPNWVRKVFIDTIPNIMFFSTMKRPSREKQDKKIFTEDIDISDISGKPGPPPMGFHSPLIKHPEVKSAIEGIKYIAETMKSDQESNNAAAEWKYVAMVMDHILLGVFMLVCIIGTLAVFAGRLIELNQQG
- Measurement Protocol: SPR binding affinity (RU) of optimized 5mer/6mer/7mer peptides, Examples 6-7
- Measurement Setup: SPR, peptides tested at 10 μM; 6mer-1 Top sequence (top combinations)
Outcome Measure: Binding affinity

[
  {
    "Substance": "6mer-1-78 (KKRVSK)",
    "Outcome Measure": "Binding affinity",
    "Result": "145 Ru"
  },
  {
    "Substance": "6mer-1-182 (KRGICK)",
    "Outcome Measure": "Binding affinity",
    "Result": "147 Ru"
  },
  {
    "Substance": "6mer-1-114 (RRQITK)",
    "Outcome Measure": "Binding affinity",
    "Result": "153 Ru"
  },
  {
    "Substance": "6mer-1-58 (RKSVTR)",
    "Outcome Measure": "Binding affinity",
    "Result": "126 Ru"
  },
  {
    "Substance": "6mer-1-167 (RRRYQR)",
    "Outcome Measure": "Binding affinity",
    "Result": "122 Ru"
  },
  {
    "Substance": "6mer-1-100 (RKWISK)",
    "Outcome Measure": "Binding affinity",
    "Result": "146 Ru"
  },
  {
    "Substance": "6mer-1-201 (RRRIQR)",
    "Outcome Measure": "Binding affinity",
    "Result": "151 Ru"
  },
  {
    "Substance": "6mer-1-148 (RKLRCR)",
    "Outcome Measure": "Binding affinity",
    "Result": "146 Ru"
  },
  {
    "Substance": "6mer-1-82 (KKVLYR)",
    "Outcome Measure": "Binding affinity",
    "Result": "123 Ru"
  },
  {
    "Substance": "6mer-1-169 (RRQQSK)",
    "Outcome Measure": "Binding affinity",
    "Result": "153 Ru"
  },
  {
    "Substance": "6mer-1-172 (RRLIRK)",
    "Outcome Measure": "Binding affinity",
    "Result": "153 Ru"
  },
  {
    "Substance": "6mer-1-128 (RKQFYR)",
    "Outcome Measure": "Binding affinity",
    "Result": "126 Ru"
  },
  {
    "Substance": "6mer-1-131 (KRGIQR)",
    "Outcome Measure": "Binding affinity",
    "Result": "142 Ru"
  },
  {
    "Substance": "6mer-1-190 (RKLYYR)",
    "Outcome Measure": "Binding affinity",
    "Result": "153 Ru"
  },
  {
    "Substance": "6mer-1-170 (RKSFYR)",
    "Outcome Measure": "Binding affinity",
    "Result": "148 Ru"
  },
  {
    "Substance": "6mer-1-79 (KRLFCK)",
    "Outcome Measure": "Binding affinity",
    "Result": "137 Ru"
  },
  {
    "Substance": "6mer-1-135 (KRQVSR)",
    "Outcome Measure": "Binding affinity",
    "Result": "123 Ru"
  },
  {
    "Substance": "6mer-1-70 (KKLLYR)",
    "Outcome Measure": "Binding affinity",
    "Result": "139 Ru"
  },
  {
    "Substance": "6mer-1-101 (KRWLYR)",
    "Outcome Measure": "Binding affinity",
    "Result": "142 Ru"
  },
  {
    "Substance": "6mer-1-50 (KKVRTR)",
    "Outcome Measure": "Binding affinity",
    "Result": "139 Ru"
  },
  {
    "Substance": "6mer-1-145 (RKVFQR)",
    "Outcome Measure": "Binding affinity",
    "Result": "141 Ru"
  },
  {
    "Substance": "6mer-1-57 (RKQYYK)",
    "Outcome Measure": "Binding affinity",
    "Result": "139 Ru"
  },
  {
    "Substance": "6mer-1-129 (RRRQSK)",
    "Outcome Measure": "Binding affinity",
    "Result": "121 Ru"
  },
  {
    "Substance": "6mer-1-92 (RRWRLK)",
    "Outcome Measure": "Binding affinity",
    "Result": "153 Ru"
  },
  {
    "Substance": "6mer-1-7 (KRQYSK)",
    "Outcome Measure": "Binding affinity",
    "Result": "126 Ru"
  },
  {
    "Substance": "6mer-1-89 (RKQRCK)",
    "Outcome Measure": "Binding affinity",
    "Result": "142 Ru"
  },
  {
    "Substance": "6mer-1-34 (RKWLYK)",
    "Outcome Measure": "Binding affinity",
    "Result": "135 Ru"
  },
  {
    "Substance": "6mer-1-161 (KRRYCK)",
    "Outcome Measure": "Binding affinity",
    "Result": "139 Ru"
  },
  {
    "Substance": "6mer-1-175 (RRRIQK)",
    "Outcome Measure": "Binding affinity",
    "Result": "137 Ru"
  },
  {
    "Substance": "6mer-1-159 (KRLRRK)",
    "Outcome Measure": "Binding affinity",
    "Result": "139 Ru"
  },
  {
    "Substance": "6mer-1-90 (KKGISK)",
    "Outcome Measure": "Binding affinity",
    "Result": "125 Ru"
  },
  {
    "Substance": "6mer-1-123 (RRGVQK)",
    "Outcome Measure": "Binding affinity",
    "Result": "148 Ru"
  },
  {
    "Substance": "6mer-1-71 (KRWFYK)",
    "Outcome Measure": "Binding affinity",
    "Result": "121 Ru"
  },
  {
    "Substance": "6mer-1-153 (KKWQQR)",
    "Outcome Measure": "Binding affinity",
    "Result": "146 Ru"
  },
  {
    "Substance": "6mer-1-80 (KRVQQR)",
    "Outcome Measure": "Binding affinity",
    "Result": "133 Ru"
  },
  {
    "Substance": "6mer-1-44 (KRQYCK)",
    "Outcome Measure": "Binding affinity",
    "Result": "148 Ru"
  },
  {
    "Substance": "6mer-1-124 (KRVQQK)",
    "Outcome Measure": "Binding affinity",
    "Result": "137 Ru"
  },
  {
    "Substance": "6mer-1-183 (KKGQTR)",
    "Outcome Measure": "Binding affinity",
    "Result": "121 Ru"
  },
  {
    "Substance": "6mer-1-3 (RKRRSR)",
    "Outcome Measure": "Binding affinity",
    "Result": "154 Ru"
  },
  {
    "Substance": "6mer-1-103 (RKRICK)",
    "Outcome Measure": "Binding affinity",
    "Result": "122 Ru"
  },
  {
    "Substance": "6mer-1-184 (KRQICR)",
    "Outcome Measure": "Binding affinity",
    "Result": "139 Ru"
  },
  {
    "Substance": "6mer-1-32 (RKGQCR)",
    "Outcome Measure": "Binding affinity",
    "Result": "121 Ru"
  },
  {
    "Substance": "6mer-1-77 (KKQLRR)",
    "Outcome Measure": "Binding affinity",
    "Result": "149 Ru"
  },
  {
    "Substance": "6mer-1-54 (RRRVCK)",
    "Outcome Measure": "Binding affinity",
    "Result": "144 Ru"
  },
  {
    "Substance": "6mer-1-6 (RKSRCK)",
    "Outcome Measure": "Binding affinity",
    "Result": "153 Ru"
  },
  {
    "Substance": "6mer-1-178 (RKRYQK)",
    "Outcome Measure": "Binding affinity",
    "Result": "139 Ru"
  },
  {
    "Substance": "6mer-1-106 (KRGQLK)",
    "Outcome Measure": "Binding affinity",
    "Result": "149 Ru"
  },
  {
    "Substance": "6mer-1-166 (RRWYSK)",
    "Outcome Measure": "Binding affinity",
    "Result": "148 Ru"
  },
  {
    "Substance": "6mer-1-160 (RRVIQR)",
    "Outcome Measure": "Binding affinity",
    "Result": "149 Ru"
  },
  {
    "Substance": "6mer-1-4 (RKSFYK)",
    "Outcome Measure": "Binding affinity",
    "Result": "139 Ru"
  },
  {
    "Substance": "6mer-1-68 (RKLQLK)",
    "Outcome Measure": "Binding affinity",
    "Result": "153 Ru"
  },
  {
    "Substance": "6mer-1-196 (RKWRRK)",
    "Outcome Measure": "Binding affinity",
    "Result": "142 Ru"
  }
]
